Each entry below lists one item and its recorded pEC50 value.
# experimental.system: PAR-2 (Homo sapiens, UniProt P55085)
# Sequence (P55085 26-397): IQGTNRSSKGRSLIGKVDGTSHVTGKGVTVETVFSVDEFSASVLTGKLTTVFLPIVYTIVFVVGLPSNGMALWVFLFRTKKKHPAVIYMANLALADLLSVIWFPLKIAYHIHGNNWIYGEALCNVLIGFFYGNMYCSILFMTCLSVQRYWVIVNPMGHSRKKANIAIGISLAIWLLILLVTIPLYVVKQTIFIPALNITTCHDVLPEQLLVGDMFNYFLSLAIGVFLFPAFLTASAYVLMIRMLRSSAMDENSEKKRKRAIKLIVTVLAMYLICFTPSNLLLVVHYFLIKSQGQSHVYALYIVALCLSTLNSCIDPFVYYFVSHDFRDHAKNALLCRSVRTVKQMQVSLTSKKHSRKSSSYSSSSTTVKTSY
# assay.text: Intracellular calcium dynamics assay (modified Hawthorne et al. method) in HCT-15 cells
# Assay type: cell-based
# Set-up: endogenous in cells; host or cells: HCT-15 human colorectal adenocarcinoma cells
Square brackets hold non-standard residues; d marks the D form. Peptide text beside a SMILES is read from it. * marks the point of attachment. NHCH2CH2(piperidin-1-yl) = C1CCN(CCN*)CC1; Imidazole4carbonyl = O=C(c1cnc[nH]1)*; Isoxazole(3-carbonyl) = O=C(c1ccon1)*; Cha = N[C@@H](CC1CCCCC1)C(=O)O; Picolinoyl = O=C(c1ccccn1)*; 2Furoyl = O=C(c1ccco1)*
Interpret pEC50 as the negative base-10 log of the concentration measured in mol/L.

• O=C(CNC(=O)[C@H](Cc1ccccc1)NC(=O)c1ccco1)NCC(=O)N[C@@H](CC1CCCCC1)C(=O)NCCN1CCCCC1 [Example 2] (2Furoyl-FGG[Cha]-{NHCH2CH2(piperidin-1-yl)}) = 5.54
• O=C(CNC(=O)[C@H](CC1CCCCC1)NC(=O)c1cnc[nH]1)NCC(=O)N[C@@H](CC1CCCCC1)C(=O)NCCN1CCCCC1 [Example 9] (Imidazole4carbonyl-[Cha]GG[Cha]-{NHCH2CH2(piperidin-1-yl)}) = 4.83

Retrieve pEC50 on PAR-2 (Homo sapiens, UniProt P55085); query O=C(CNC(=O)[C@H](CC1CCCCC1)NC(=O)c1ccon1)NCC(=O)N[C@@H](CC1CCCCC1)C(=O)NCCN1CCCCC1 [Example 6] ({Isoxazole(3-carbonyl)}-[Cha]GG[Cha]-{NHCH2CH2(piperidin-1-yl)}) 5.18

Retrieve pEC50 on PAR-2 (Homo sapiens, UniProt P55085); query O=C(CNC(=O)[C@H](CC1CCCCC1)NC(=O)c1ccccn1)NCC(=O)N[C@@H](CC1CCCCC1)C(=O)NCCN1CCCCC1 [Example 7] (Picolinoyl-[Cha]GG[Cha]-{NHCH2CH2(piperidin-1-yl)}) 5.12
